System: K. pneumoniae TK1401
assay_details: Antimicrobial susceptibility testing, broth microdilution method
Assay type: cell-based, Klebsiella pneumoniae
test_parameters: Klebsiella pneumoniae; K. pneumoniae isolate TK1401; broth microdilution method (footnote b); read-out: Minimum inhibitory concentration
Item-by-item account of MIC

structure: CN(C)c1ccc(O)c2c1C[C@H]1C[C@H]3[C@H](N(C)C)C(O)=C(C(N)=O)C(=O)[C@@]3(O)C(O)=C1C2=O
MIC: 256 µg/mL
//
structure: C[C@@H]1O[C@@H]1P(=O)(O)O
MIC: > 256 µg/mL
//
structure: NCC[C@H](O)C(=O)N[C@@H]1C[C@H](N)[C@@H](O[C@H]2O[C@H](CN)CC[C@H]2N)[C@H](O)[C@H]1O[C@H]1O[C@H](CO)[C@@H](O)[C@H](N)[C@H]1O
MIC: > 256 µg/mL
//
structure: O=C(N[C@H](CO)[C@H](O)c1ccc([N+](=O)[O-])cc1)C(Cl)Cl
MIC: > 256 µg/mL
